Target: Genome polyprotein [1424-1463]/[1502-1685] (West Nile virus)
Sequence (P06935 whole entry) 1: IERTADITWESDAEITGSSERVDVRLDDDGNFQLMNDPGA
Sequence (P06935 whole entry) 2: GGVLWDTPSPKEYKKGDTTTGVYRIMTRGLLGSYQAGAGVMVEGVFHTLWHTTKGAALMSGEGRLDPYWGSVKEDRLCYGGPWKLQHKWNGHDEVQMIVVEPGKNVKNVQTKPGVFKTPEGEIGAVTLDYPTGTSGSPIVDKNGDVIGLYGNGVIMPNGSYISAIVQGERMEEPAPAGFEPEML
pIC50: −log10 of the molar value.
metric: pIC50

compound=NCCCC[C@H](NC(=O)C=Cc1ccccc1)C(=O)N[C@@H](CCCCN)C(=O)N[C@H](C=O)CCCN=C(N)N measuredresult=6.24
compound=COc1ccc2cc([C@H](C)C(=O)N[C@@H](CCCCN)C(=O)N[C@@H](CCCCN)C(=O)N[C@H](C=O)CCCN=C(N)N)ccc2c1 measuredresult=6.95
